biological target: human isoform h5-HT4e (Homo sapiens, UniProt Q13639); construct: membranes prepared from homogenized cells; experiment: displacement of radiolabelled ligand [3H]-GR113808, affinity constant Ki; conditions: [3H]-GR113808 0.2 nM; membranes of rat glial cells stably expressing h5-HT4e; 25° C., 30 min
Sequence (Q13639 1-378 isoform Q13639-5): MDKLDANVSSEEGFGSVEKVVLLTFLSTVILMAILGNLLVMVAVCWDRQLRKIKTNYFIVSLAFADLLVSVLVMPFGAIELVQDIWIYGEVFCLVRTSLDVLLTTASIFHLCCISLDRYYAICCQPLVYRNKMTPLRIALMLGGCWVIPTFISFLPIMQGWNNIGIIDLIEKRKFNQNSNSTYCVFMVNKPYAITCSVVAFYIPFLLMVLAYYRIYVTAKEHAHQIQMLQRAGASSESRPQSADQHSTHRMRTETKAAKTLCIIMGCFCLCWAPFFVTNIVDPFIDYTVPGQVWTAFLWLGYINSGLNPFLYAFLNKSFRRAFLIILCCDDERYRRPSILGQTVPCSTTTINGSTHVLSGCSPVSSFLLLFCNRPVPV
pKi: −log10 of the molar value.
propertyLabel: pKi

Sample answers from the record:
>>> valueobserved("CCOc1ccccc1NC(=O)OCCN1CCN(c2cccc(NC(=O)CCN)c2)CC1")
9.77
>>> valueobserved("CCOc1ccccc1NC(=O)OCCN1CCN(c2cccc(C(=O)N(C)CCN(C)C)c2)CC1")
9.12
>>> valueobserved("CCOc1ccccc1NC(=O)OCCN1CCN(c2cccc(C(=O)NCCN3CCCCC3)c2)CC1")
9.80
>>> valueobserved("CCOc1ccccc1NC(=O)OCCN1CCN(c2cccc(NC(=O)C(N)Cc3ccc(O)cc3)c2)CC1 (centres unmarked)")
9.74
>>> valueobserved("CCOc1ccccc1NC(=O)OCCN1CCN(c2cccc(NC(=O)C3=CCCN(C)C3)c2)CC1")
9.89

[I] CCOc1ccccc1NC(=O)OCCN1CCN(c2cccc(NC(=O)N3CCC(N4CCCC4)CC3)c2)CC1
[II] CCOc1ccccc1NC(=O)OCCN1CCN(c2cccc(NC(=O)NCC3CCCN3CC)c2)CC1 (centres unmarked)
[in] Lower value for measured pKi? Options: I , II Indicate your choice by writing its label.
[out] I
(I: 9.62, II: 10.05)
